Hey, just so you know, these numbers are from the supplement of paper PMC11451515.

Listing: cell viability of selected compounds
# System: P12-Ichikawa
# protocolDetails: cell viability relative to DMSO control; higher = less cytotoxic
# conditionInfo: RPMI 5 mM glucose + 10% dialyzed FBS; 48 h; 0.000781 µM

Completed entries (count: 2):
stdin: For the compound COc1cc(N2CCN(C)CC2)ccc1Nc1nc(N)c(C(=O)c2c(Cl)cccc2Cl)s1 , what cell viability is on record?
stdout: 120%

stdin: I'd like to know its cell viability. The compound in question is CCC[C@H](Nc1nc(-c2ccc(NC(=O)NCC)c(OC)c2)ncc1C)c1cccnc1
stdout: 120%

New cases:
stdin: For the compound COc1cc2cc(c1Cl)N(C)C(=O)C[C@H](OC(=O)C(C)C)[C@]1(C)O[C@@H]1[C@H](C)[C@@H]1C[C@@](O)(NC(=O)O1)[C@H](OC)/C=C/C=C(\C)C2 , what cell viability is on record?
stdout: 17.5%

stdin: Query (compound): Nc1nccc(-c2ccc3noc(-c4ccc(Cl)cc4)c3c2)n1 ; field requested: cell viability
stdout: 116%

----------
# Test system: NOMO1
# protocolDetails: cell viability relative to DMSO control; higher = less cytotoxic
# conditionInfo: RPMI 5 mM glucose + 10% FBS; 48 h; 0.000781 µM
molecules and their reported cell viability
Expressed in %, but write only the number.

Examples with their reported cell viability follow.
stdin: Query the reported cell viability for NOMO1; item: CC[C@H]1OC(=O)[C@H](C)[C@@H](O[C@H]2C[C@@](C)(OC)[C@@H](O)[C@H](C)O2)[C@H](C)[C@@H](O[C@@H]2O[C@H](C)C[C@H](N(C)C)[C@H]2O)[C@](C)(O)C[C@@H](C)/C(=N\OCOCCOC)[C@H](C)[C@@H](O)[C@]1(C)O
stdout: 85.2

stdin: // fetch NOMO1 cell viability for COc1cc(C[C@@H](CO)[C@H](CO)Cc2ccc(O)c(OC)c2)ccc1O
stdout: 107

stdin: Record CC(=O)N(O)CCCCCNC(=O)CCC(=O)N(O)CCCCCNC(=O)CCC(=O)N(O)CCCCCN.C[S+](=O)([O-])O : what is its cell viability with NOMO1?
stdout: 88.8

Continuing:
stdin: API: value(readout=cell viability, system=NOMO1) for record C/C=C(\C)C(=O)N[C@@H](c1ccccc1)[C@@H](O)C(=O)O[C@H]1C[C@@]2(O)[C@@H](OC(=O)c3ccccc3)[C@@H]3[C@]4(OC(C)=O)CO[C@@H]4C[C@H](O)[C@@]3(C)C(=O)[C@H](OC(C)=O)C(=C1C)C2(C)C
stdout: 38.9

stdin: Look up cell viability with NOMO1 for this molecule: O=C(Nc1cccnc1)N1CCC(Cc2cccc(Oc3ccc(C(F)(F)F)cn3)c2)CC1
stdout: 111

stdin: Notebook: pull reported cell viability for NOMO1, entry Nc1ncnc2nc(-c3ccc(N4CCOCC4)nc3)cc(-c3cccc(Br)c3)c12
stdout: 108

----------
# Test system: SEM cells
# protocolDetails: cell viability relative to DMSO control; higher = less cytotoxic
# conditionInfo: RPMI 5 mM glucose + 10% dialyzed FBS; 48 h; 5.12 µM
The reader will find reported cell viability values listed item by item below.
Field format: number, assumed %, no unit text.

Here are 3 compounds together with their reported answers.
stdin: Can you look up the measured cell viability of NCCOc1cc(C(=O)Nc2cc(OCCN)c3ccccc3n2)nc(C(=O)Nc2cc(OCCN)c3ccccc3n2)c1 for me?
stdout: 21.7

stdin: Consider the compound shown here: Cc1cnc(Nc2cccc(CN3CCOCC3)c2)nc1Nc1cccc([S+](=O)([O-])NC(C)(C)C)c1 What is its recorded cell viability?
stdout: 9.6

stdin: Can you share its cell viability? I mean this compound: CC(C)(C)NCC(O)c1ccc(O)c(CO)c1 (centres undefined)
stdout: 120

# ---- query compound ----
stdin: Any idea what its cell viability is? The compound is CCC(=O)N1CCN(CC1)C2=C(C=C(C=C2)N3C(=O)\C=C/C4=C3C5=CC(=CC=C5N=C4)C6=CN=C7C=CC=CC7=C6)C(F)(F)F
stdout: 42.5

----------
# System: SEM cells
# protocolDetails: cell viability relative to DMSO control; higher = less cytotoxic
# conditionInfo: HPLM + 10% dialyzed FBS; 48 h; 0.000781 µM
readout: cell viability (%)
Give the quantity in %, number only.

Examples with their reported cell viability follow.
stdin: What does the data say about its cell viability? Entry: N#CC1(c2cccc(C(=O)Nc3cc(Oc4ccc5nc(NC(=O)C6CC6)sc5n4)ccc3F)c2Cl)CC1
stdout: 93.5

stdin: Given N#Cc1c(N(CC(=O)[O-])CC(=O)[O-])sc(C(=O)[O-])c1CC(=O)[O-].O.O.O.O.O.O.O.[Sr+2].[Sr+2] , state its recorded cell viability.
stdout: 111

stdin: Report cell viability for C[C@]12CC[C@H]3[C@@H](CC[C@@]45O[C@@H]4C(O)=C(C#N)C[C@]35C)[C@@H]1CC[C@@H]2O please.
stdout: 89.7

Attention now turns to another entry.
stdin: Name the reported cell viability value associated with the compound CC[C@H](C)C(=O)O[C@H]1C[C@@H](C)\C=C2\C=C/[C@H](C)[C@H](CC[C@@H]3C[C@@H](O)CC(=O)O3)[C@@H]12
stdout: 71.1

----------
# Tested on: SEM cells
# protocolDetails: cell viability relative to DMSO control; higher = less cytotoxic
# conditionInfo: RPMI 5 mM glucose + 10% dialyzed FBS; 48 h; 0.00702 µM
readout: cell viability (%)
Quick note: give the figure in %, leave out the unit.

Illustrative cases are given below, each with its answer.
stdin: Request the reported cell viability associated with CC(=O)N(O)CCCCCNC(=O)CCC(=O)N(O)CCCCCNC(=O)CCC(=O)N(O)CCCCCN.C[S+](=O)([O-])O
stdout: 94.4

stdin: Return reported cell viability; argument: CC(C)C[C@H](CC(=O)O)C(=O)N[C@@H](Cc1c[nH]c2ccccc12)C(=O)N[C@@H](C)c1ccccc1
stdout: 97.3

Further cases:
stdin: Would you mind telling me what cell viability value was observed for COc1cc(C[C@@H](CO)[C@H](CO)Cc2ccc(O)c(OC)c2)ccc1O ?
stdout: 98.1

stdin: Recorded cell viability of Nc1nccc(-c2ccc3noc(-c4ccc(Cl)cc4)c3c2)n1 , please.
stdout: 119

----------
// values below are reported cell viability
# Test system: P12-Ichikawa
# protocolDetails: cell viability relative to DMSO control; higher = less cytotoxic
# conditionInfo: RPMI 5 mM glucose + 10% dialyzed FBS; 48 h; 0.00234 µM
Field format: number, assumed %, no unit text.

Would you please look over these solved cases?
stdin: Endpoint output: cell viability of O=C1c2ccccc2-c2n[nH]c3cccc1c23 . Value?
stdout: 97.2

stdin: Entry COC(=O)CCC1=C(C)C2=CC3=NC(=CC4=C(C)C(=C([NH]4)C=C\5N=C(C=C1[NH]2)\C(=C5C)CCC(O)=O)C=C)\C6=C\C=C(/[C@@H](C(=O)OC)[C@@]36C)C(=O)OC : reported cell viability = ?
stdout: 94.7

stdin: Look up cell viability: Cc1nnc(C(=O)NC(C)(C)c2nc(C(=O)NCc3ccc(F)cc3)c(O)c(=O)n2C)o1
stdout: 100

stdin: Param item = CCOc1ccccc1N/N=C1/C(=O)N(c2nc(-c3ccccc3)cs2)N=C1C ; retrieve measured cell viability.
stdout: 118

Continuing:
stdin: Fill in: cell viability of CN(CC(=O)N(Cc1ccc(C2CCCCC2)cc1)c1ccc(C(=O)O)c(O)c1)[S+](=O)([O-])c1c(F)c(F)c(F)c(F)c1F is ___
stdout: 90.1

stdin: Fill in the blank: the reported cell viability of C[C@H](NC(=O)[C@@H](O)c1cc(F)cc(F)c1)C(=O)N[C@@H]1C(=O)N(C)c2ccccc2-c2ccccc21 is ____.
stdout: 110

stdin: Recorded cell viability of CN(C)C(=O)[C@H](O)[C@H](Cc1ccccc1)NC(=O)c1cc2cc(Cl)ccc2[nH]1 , please.
stdout: 118

----------
# System: SEM cells
# protocolDetails: cell viability relative to DMSO control; higher = less cytotoxic
# conditionInfo: HPLM + 10% dialyzed FBS; 48 h; 0.0211 µM
readout: cell viability (%)
Respond with the bare value in %.

Known results for compounds:
stdin: Which cell viability value belongs to NC[C@H](O)c1ccc(O)c(O)c1 ?
stdout: 101

stdin: // lookup cell viability for CC(C)(C)NCC(O)c1ccc(O)c(CO)c1 (stereo unspecified)
stdout: 106

stdin: Reported cell viability, compound Cc1nc2ccc(CN(C)c3ccc(C(=O)N[C@@H](CCC(=O)O)C(=O)O)s3)cc2c(=O)[nH]1 : ____
stdout: 103

Next:
stdin: For the compound shown here, Cc1ccc(C(=O)Nc2ccc([S+](=O)([O-])O)c3cc([S+](=O)([O-])O)cc([S+](=O)([O-])O)c23)cc1NC(=O)c1cccc(NC(=O)Nc2cccc(C(=O)Nc3cc(C(=O)Nc4ccc([S+](=O)([O-])O)c5cc([S+](=O)([O-])O)cc([S+](=O)([O-])O)c45)ccc3C)c2)c1 , give the reported cell viability.
stdout: 100

stdin: Dear colleague, I am looking for the recorded cell viability of the following compound: CO[C@H]1C[C@@H]2CC[C@@H](C)[C@@](O)(O2)C(=O)C(=O)N2CCCC[C@H]2C(=O)O[C@H]([C@@H](C)C[C@@H]2CC[C@@H](O)[C@H](OC)C2)CC(=O)[C@H](C)/C=C(\C)[C@@H](O)[C@@H](OC)C(=O)[C@H](C)C[C@H](C)/C=C/C=C/C=C/1C
stdout: 83.2

stdin: So what does the record say about cell viability for CCC(=O)N1CCN(CC1)C2=C(C=C(C=C2)N3C(=O)\C=C/C4=C3C5=CC(=CC=C5N=C4)C6=CN=C7C=CC=CC7=C6)C(F)(F)F ?
stdout: 73.8
